Origin of the recorded values: the RNAGym collection of RNA variant scans (doi:10.7554/elife.80360)

// self-cleavage lookup, one value per entry
B1: HDV Ribozyme (parent)
chain: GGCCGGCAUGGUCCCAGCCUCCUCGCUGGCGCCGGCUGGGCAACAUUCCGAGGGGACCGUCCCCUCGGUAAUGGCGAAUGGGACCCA

# Variants of: B1
# method: self-cleavage, relative activity (ratio to wild type); higher = more cleavage; co-transcriptional
Write the number on its own, no unit after it.

Known self-cleavage results, listed for orientation:
GGCCGGCAUGGUCCCAGCCUCCUCGCUGGCGCCAGCUGGGCAACAUUCCGAGGGGACCGUCCCCUCGGUAAUGGCGAAUGGGACGCA
0.0978
GGCCGGCAUGGUCCCAGCCUCCUCGCUGGCGCCCGCUGGGCAACAUUCCGAGGGAACCGUCCCCUCGGUAAUGGCGAAUGGGACCCA
0.147
GGCCGGCAUGGUCCGAGCCUCCUCGCUGGCGCCGGCUGGGCAACAUUCCGAGGGGACCCUCCCCUCGGUAAUGGCGAAUGGGACCCA
0.767
GGCCGGCAUGGUCCCAGCCUCCUCGCUGGCGCCGGCUAGGCAACAUUCCGAGGGGACCGUCCCCUCGGUAAUGGCGAAUGGGGCCCA
0.142
GGCCGACAUGGUCCCAGCCUCCUCGCUGGCGCCGGCUGGGCAACAUUCCGAGGGGACCGCCCCCUCGGUAAUGGCGAAUGGGACCCA
0.789

Prompt line: # lookup: self-cleavage of GGCCGGCAUGGUGCCAGCCUCCUCGCUGGCGCCGGCUGGGCAACAUUCCGAGCGGACCGUCCCCUCGGUAAUGGCGAAUGGGACCCA
Response line: 0.123

Prompt line: Field entry: GGCCGGCAUGGUCCCAGCCUCCUCGCUGGCGCCGGCUGGGCAACAUUCGAAGGGGACCGUCCCCUCGGUAAUGGCGAAUGGGACCCA
Response line: 0.793

Prompt line: Field entry: GGCCGGCAUGGUCCCAGCCUCCUCGCUGGCGCCGGCUGGGCAACAUUCCGAGGGAACCGUCCCCUCGGUAAUGGCGAAUGGGGCCCA
Response line: 0.919

Prompt line: Field entry: GGCCGGCAUGGUCCCAGCCUCCUCGCUGGCGCCGGCUGGGCAACAUUCCGAGGGAACCGUCCCCUCGGUAAUGGCUAAUGGGACCCA
Response line: 0.918

Prompt line: Field entry: GGCCGGCAUGGUCCCAGCCUCCUCGCUGGCGCCGGCUUGGCAACUUUCCGAGGGGACCGUCCCCUCGGUAAUGGCGAAUGGGACCCA
Response line: 0.158

Prompt line: Field entry: GGCCGGCAUGGUCCCAGCCUCAUCGCUGGCGCCGGCUGGGCAACAUUCCGAGGGGACCGUCCCCUCGGUAAGGGCGAAUGGGACCCA
Response line: 0.332

Prompt line: Field entry: GGCCGGCAUGGUCCCAGCCUCCUCGCUGGCGCCGGCUGUGCAACAUUCCCAGGGGACCGUCCCCUCGGUAAUGGCGAAUGGGACCCA
Response line: 0.598
